# procedureSummary: Solubility pH7.4
# Format: physicochemical
# appliedConditions: pH 7.4, aqueous buffer
Items are presented alongside their recorded log10(solubility).
endpointName: log10(solubility) (log10 of the value in µg/mL)

{"compound": "CC(C)(Cc1ccc(F)cc1)NC(=O)[C@H](C[C@H](Cc1ccccc1)C(=O)O)NC(=O)c1ccc(-c2ccccc2)cc1 [Compound 6]", "log10(solubility)": 1.78}
{"compound": "CC(Cc1ccc(F)cc1)NC(=O)[C@H](C[C@H](C)C(=O)O)NC(=O)c1ccc(-c2ccccc2)cc1 (single isomer, unassigned) [Compound 17]", "log10(solubility)": 2.48}
{"compound": "C[C@@H](C[C@H](NC(=O)c1ccc(-c2ccccn2)cc1)C(=O)NC(C)(C)Cc1ccc(F)cc1)C(=O)O [Compound 10]", "log10(solubility)": 2.95}
{"compound": "C[C@@H](C[C@H](NC(=O)C1CCN(c2ccc(F)cc2)CC1)C(=O)NC(C)(C)Cc1ccc(F)cc1)C(=O)O [Compound 12]", "log10(solubility)": 2.87}
{"compound": "C[C@@H](C[C@H](NC(=O)c1ccc(-c2ccccc2)nc1)C(=O)NC(C)(C)Cc1ccc(F)cc1)C(=O)O [Compound 14]", "log10(solubility)": 2.89}
{"compound": "C[C@@H](C[C@H](NC(=O)c1ccc(-c2ccn(C)n2)cc1)C(=O)NC(C)(C)Cc1ccc(F)cc1)C(=O)O [Compound 9]", "log10(solubility)": 2.90}
{"compound": "C[C@@H](Cc1ccc(F)cc1)NC(=O)[C@H](C[C@H](C)C(=O)O)NC(=O)c1ccc(-c2ccccc2)cc1 (single isomer, unassigned) [Compound 3]", "log10(solubility)": 2.20}
{"compound": "C[C@@H](C[C@H](NC(=O)c1cnc(-c2ccc(F)cc2)s1)C(=O)NC(C)(C)Cc1ccc(F)cc1)C(=O)O [Compound 20]", "log10(solubility)": 2.69}
